Provenance of the data: PubChem BioAssay (NCI)

# Test system: KM20L2 colon
# experiment summary: NCI tumour cell line growth inhibition, 48 h
# TGI values compiled below

// below: answered molecules
1. C/C=C/C(=O)[C@@H](O)C(C)C; > 100 µM
2. NCCn1ccc(NC(c2ccccc2)(c2ccccc2)c2ccccc2)nc1=O; 32.2 µM

// switching to the query molecule
Return TGI measured with KM20L2 colon given this molecule: NC(=S)N/N=C1\C(=O)N(CCc2ccccc2)C(=O)C1C(=O)NCCc1ccccc1 (stereo not drawn)
> 100 µM

###

# System: OVCAR-4 ovarian
# experiment summary: NCI tumour cell line growth inhibition, 48 h
# GI50 values compiled below

1) CCc1nc(-n2c(CC)nc3ccccc3c2=O)nc(N)c1-c1ccc(Cl)cc1; > 100 µM
2) C=CC(=O)NCCOc1cccc(Nc2cc(NCCCNC(=O)C3CCC3)c(Br)cn2)c1; 1.26 µM
3) COc1cccc2c1nc1cccc(OC)c1[n+]2[O-]; 4.16 µM
4) COc1ccc(-c2nn(-c3ccc(NC(=O)Nc4ccc(Cl)c(Cl)c4)cc3)cc2-c2ccncc2)cc1Cl; 1.79 µM

Item under review: `O=C(CCc1ccco1)NC1CCN(CC2(c3ccc(Cl)cc3)CCC2)CC1` . Reported GI50?
10.3 µM

Item under review: `Cc1cc(C(=O)N[C@@H](CCC(=O)O)C(=O)O)sc1CC[C@@H]1CNc2nc(N)[nH]c(=O)c2C1` . Reported GI50?
23.3 µM

###

# Test system: A549 NSCLC
# experiment summary: NCI tumour cell line growth inhibition, 48 h
# TGI values compiled below

Item under review: `C=CCOc1ccc(C2(c3ccc(OCC=C)cc3)C(=O)Nc3ccccc32)cc1` . Reported TGI?
> 10 µM

###

# TGI values compiled below
# Test system: MDA-N
# experiment summary: NCI tumour cell line growth inhibition, 48 h

// below: answered molecules
1. COc1ccc(C2C3=C(COC3=O)OC(C)(C)Oc3cc4c(cc32)OCO4)cc1 (stereo not drawn); 8.97 µM
2. C=CCOc1ccc(C2(c3ccc(OCC=C)cc3)C(=O)Nc3ccccc32)cc1; > 10 µM
3. [C-]#[O+].[C-]#[O+].[Ir].[O-]c1ccc2ccccc2c1N=Nc1ccccc1; 18.8 µM
4. C[N+]1(C)CCOC(O)(c2ccccc2)C1 (stereo not drawn); > 100 µM
5. c1ccc(CCCNc2nnnc3ccccc23)cc1; > 100 µM

Item under review: CC1=CSC(O)(c2ccc(Cl)cc2)c2noc(=O)n21 (stereo not drawn) . Reported TGI?
> 100 µM

Item under review: CC(C)(O)/C=C\P(C)(=O)c1ccccc1 (stereo not drawn) . Reported TGI?
> 100 µM

Item under review: COC(=O)/C=C\[C@@H]1[C@H](C)N1S(=O)(=O)c1ccc(C)cc1 (stereo partly drawn) . Reported TGI?
> 100 µM

Item under review: COC(=O)/C(=N\N)C(C(=O)C(=O)Nc1cccc([N+](=O)[O-])c1)c1nc2ccc(C(=O)c3ccccc3)cc2[nH]c1=O (stereo not drawn) . Reported TGI?
> 100 µM

Item under review: `c1cc2[nH]snc2c2cncc12` . Reported TGI?
> 100 µM

###

# Test system: SNB-19 CNS
# experiment summary: NCI tumour cell line growth inhibition, 48 h
# TGI values compiled below

// below: answered compounds
1) Cc1cc(C)c(S(=O)(=O)N(CCCCCCN)OCCCN)c(C)c1; 38.2 µM
2) FC(F)(F)c1ccc2c(c1)nc(Cc1ccc(Cl)c(Cl)c1)n2CC1CCCN2CCCCC12 (configuration not stated); 53.1 µM
3) COc1ccc2[nH]c3c(C)c4cc[n+](C)cc4c(C)c3c2c1; 1.04 µM [middle of 4 runs]
4) COc1ccc(OC)c(/C=C/C(=O)C(C)(C)C)c1; 32.4 µM
5) CCOC(=O)C12CCSC1C1(C#N)C(C#N)=CC2(N=P(c2ccccc2)(c2ccccc2)c2ccccc2)n2c(=O)n(-c3ccccc3)c(=O)n21 (configuration not stated); > 100 µM
6) CC1C(/C=C/c2ccoc2)ON2CCCC12 (configuration not stated); > 100 µM

Item under review: `CCCCCCCCCCCCC/C=C1\C[C@H](O)COC1=O` . Reported TGI?
32.9 µM

Item under review: CC(=O)OCC1OC(O[C@@H]2C[C@H]3C(C)(C)[C@H](OC(C)=O)CC[C@]3(C)[C@H]3CC[C@]4(C)C(=CC[C@H]4[C@@H](C)C[C@@H](O)[C@H](O)C(C)(C)O)[C@@]32C)C(O)C(O)C1O (some centres not stated) . Reported TGI?
29.3 µM

Item under review: `Cc1ccc(-c2cn3c(nc4ccccc43)c(-c3ccccc3)n2)cc1` . Reported TGI?
48.7 µM

Item under review: `Cc1cc(Cl)ccc1NC(=O)C(=O)Cc1ccc([N+](=O)[O-])c([N+](=O)[O-])c1CC(=O)C(=O)Nc1ccc(Cl)cc1C` . Reported TGI?
> 100 µM

Item under review: `CC(=O)/C=C(/C=N/O)c1ccccc1` . Reported TGI?
> 100 µM

Item under review: `Cc1ccc(P(c2ccc(C)cc2)c2ccc(C)cc2)cc1` . Reported TGI?
> 100 µM

###

# System: NCI/ADR-RES ovarian
# experiment summary: NCI tumour cell line growth inhibition, 48 h
# GI50 values compiled below

// below: answered compounds
1. COc1ccc2[nH]c(-c3ccccc3)c(C=C(C#N)C#N)c2c1; 2790 nM
2. C[n+]1c2cc(N)ccc2cc2ccc(N)cc21 (tested in a mixture with another compound); 746 nM
3. COc1cc(OC)cc(-c2ccc(-c3ccc(C(=N)N)s3)s2)c1; 1750 nM
4. COc1ccc(-c2nn(-c3ccc(NC(=O)Nc4ccc(Cl)c(Cl)c4)cc3)cc2-c2ccncc2)cc1Cl; 2060 nM
5. C=CC(=O)NCCOc1cccc(Nc2cc(NCCCNC(=O)C3CCC3)c(Br)cn2)c1; 8740 nM

Return GI50 measured with NCI/ADR-RES ovarian given this compound: `COc1cccc2c1nc1cccc(OC)c1[n+]2[O-]`
5510 nM

Return GI50 measured with NCI/ADR-RES ovarian given this compound: `Cc1cc(Nc2cc(CN3CCOCC3)c3nc(C)c(Cc4ccc(Cl)cc4F)n3n2)n[nH]1`
4280 nM

Return GI50 measured with NCI/ADR-RES ovarian given this compound: `COc1cc(-c2nc3ccccc3[nH]2)ccc1OCC(=O)N=Nc1c(O)[nH]c2ccc(Cl)cc12`
> 100000 nM

###

# System: MCF7 breast
# experiment summary: NCI tumour cell line growth inhibition, 48 h
# TGI values compiled below

// below: answered molecules
1. Cc1cc(C(=O)N[C@@H](CCC(=O)O)C(=O)O)sc1CC[C@@H]1CNc2nc(N)[nH]c(=O)c2C1; > 100 µM
2. CN1C(=O)N(C)C2C1NN=c1s/c(=C\c3c[nH]c4ccccc34)c(=O)n12 (centres undefined); > 100 µM
3. Nc1nc(N)c2ncn(-c3ccc(Cl)c(Cl)c3)c2n1; > 100 µM

Return TGI measured with MCF7 breast given this molecule: CCCCCCCCCCCCOC1C(CNCC2OC3OC(C)(C)OC3C2NC(=O)Nc2ccc(C(F)(F)F)cc2)OC2OC(C)(C)OC21 (centres undefined)
7.94 µM

Return TGI measured with MCF7 breast given this molecule: O=C1c2ccccc2C(=O)c2c(NC(=O)C(Cl)CCl)cccc21 (centres undefined)
2.47 µM

Return TGI measured with MCF7 breast given this molecule: CC(C)=CCc1c(O)ccc2c1OC1c3ccc(O)c(CC=C(C)C)c3OCC21 (centres undefined)
16.9 µM

Return TGI measured with MCF7 breast given this molecule: CCCCC1C(=O)N(c2ccc(S(=O)(=O)Nc3ccccn3)cc2)N(c2ccc(O)c(C(=O)O)c2)C1=O (centres undefined)
> 100 µM

Return TGI measured with MCF7 breast given this molecule: CC(C)[C@](O)(C(=O)OCC1=CC[N+]2([O-])CC[C@@H](O)[C@@H]12)[C@H](C)O (some centres undefined)
> 10000 µM

Return TGI measured with MCF7 breast given this molecule: C[n+]1c2ccccc2c(C(=O)NC(CCCN=C(N)N)C(=O)O)c2ccccc21 (centres undefined)
> 100 µM

###

# Tested on: SK-MEL-5 melanoma
# experiment summary: NCI tumour cell line growth inhibition, 48 h
readout name: TGI (µM)
Give the value, in units of µM, as a plain number.

// below: answered compounds
1) COc1cc2c(cc1O)[C@H](C)C(c1ccccc1OC)O2 (some centres undefined); 19.7
2) Cc1cc(O)c(C2=NN(c3ccc(S(N)(=O)=O)cc3)C(c3ccccc3O)C2)cc1Cl (centres undefined); 18.2
3) N#Cc1c(N)c2c(c(-c3ccccc3)c1-c1ccccc1)C(=O)N(Nc1ccccc1)C2=O; 78.5

Item under review: `O=S(=O)(O)c1cc(N=Nc2cc(S(=O)(=O)O)c3ccccc3c2O)ccc1/C=C/c1ccc(N=Nc2cc(S(=O)(=O)O)c3ccccc3c2O)cc1S(=O)(=O)O` . Reported TGI?
239

Item under review: `COc1cc(-c2nc3ccccc3[nH]2)ccc1OCC(=O)N=Nc1c(O)[nH]c2ccc(Cl)cc12` . Reported TGI?
3.2

Item under review: `O=C1N[C@H]2C(=O)c3c(Cl)sc(Cl)c3[C@H]2O1` . Reported TGI?
35
